biological target: hERG (Kv11.1, KCNH2) (Homo sapiens); test: in vitro
Sequence (Q12809 whole entry): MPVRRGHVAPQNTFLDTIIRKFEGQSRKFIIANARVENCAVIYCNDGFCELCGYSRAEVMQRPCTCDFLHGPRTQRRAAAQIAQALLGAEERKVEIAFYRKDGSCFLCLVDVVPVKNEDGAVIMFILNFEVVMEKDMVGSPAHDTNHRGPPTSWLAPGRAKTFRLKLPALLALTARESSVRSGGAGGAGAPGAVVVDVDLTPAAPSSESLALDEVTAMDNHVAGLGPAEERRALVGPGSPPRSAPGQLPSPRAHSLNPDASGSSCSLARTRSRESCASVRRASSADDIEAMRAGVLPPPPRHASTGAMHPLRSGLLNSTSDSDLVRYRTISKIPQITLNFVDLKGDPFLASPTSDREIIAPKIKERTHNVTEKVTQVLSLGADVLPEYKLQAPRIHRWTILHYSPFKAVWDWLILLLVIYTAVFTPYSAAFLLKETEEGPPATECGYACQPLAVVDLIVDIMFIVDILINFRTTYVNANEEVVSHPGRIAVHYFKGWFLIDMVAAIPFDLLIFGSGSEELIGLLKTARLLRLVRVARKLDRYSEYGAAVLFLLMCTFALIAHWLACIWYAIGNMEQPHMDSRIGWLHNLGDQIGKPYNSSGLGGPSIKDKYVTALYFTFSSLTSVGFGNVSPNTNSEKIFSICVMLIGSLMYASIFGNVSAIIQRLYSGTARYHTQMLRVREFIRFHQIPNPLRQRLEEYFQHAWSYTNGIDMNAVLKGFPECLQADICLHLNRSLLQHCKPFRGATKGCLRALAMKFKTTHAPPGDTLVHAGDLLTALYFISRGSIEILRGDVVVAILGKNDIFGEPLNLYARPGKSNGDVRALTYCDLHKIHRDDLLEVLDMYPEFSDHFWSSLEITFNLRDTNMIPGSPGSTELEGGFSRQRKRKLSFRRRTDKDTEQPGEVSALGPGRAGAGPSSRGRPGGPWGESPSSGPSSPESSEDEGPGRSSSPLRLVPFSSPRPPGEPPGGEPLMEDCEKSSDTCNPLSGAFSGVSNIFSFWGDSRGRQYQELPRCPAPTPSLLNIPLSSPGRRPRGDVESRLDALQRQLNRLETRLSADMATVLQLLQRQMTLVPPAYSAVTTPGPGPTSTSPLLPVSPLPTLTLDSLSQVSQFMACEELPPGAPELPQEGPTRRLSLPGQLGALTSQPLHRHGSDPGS
Description: MMV: Malaria Box compounds were tested for inhibition of the human ether a go-go related gene (hERG), Kv11.1 channel, using IonWorks 384-well patch clamp electrophysiology at 11.1uM (3 independent assay plates up to 12 cells per concentration).
assay.endpoint: inhibition at 11.1 µM (%)
Express your answer in %, writing the number without its unit.

Some solved cases for reference:
compound	value.units	inhibition at 11.1 µM
CCCc1c(CC)c(=N)c2ccccc2n1C	%	26
Cc1ccc(-c2cc3c(SCC(=O)Nc4cc(C(F)(F)F)ccc4Cl)nccn3n2)cc1	%	29

Moving on to the next compound.
Kindly indicate its recorded inhibition at 11.1 µM. Item: COc1ccc(C2c3ccc4ccccc4c3Oc3ncn(CCCn4ccnc4)c(=N)c32)cc1OC (stereo not drawn)
25

---

Recorded inhibition at 1.1 µM, one value per entry.
target: UniProtKB Q12809; experiment: in vitro
Description: MMV: Malaria Box compounds were tested for inhibition of the human ether a go-go related gene (hERG), Kv11.1 channel, using IonWorks 384-well patch clamp electrophysiology at 1.1uM (3 independent assay plates up to 12 cells per concentration).
# number then unit; no other words

Some solved cases for reference:
compound	inhibition at 1.1 µM
COc1ccc(C2Sc3ccccc3N=C3C2=C(O)c2ccccc23)cc1 (stereo not drawn)	-2%
Oc1ccc(Br)cc1CN1CCN(Cc2ccc(Cl)cc2)CC1	2%

Moving on to the next compound.
Kindly indicate its recorded inhibition at 1.1 µM. Item: CCOc1cc2c(cc1OCC)C(c1cc(C)c(O)c(C)c1)NCC2 (stereo not drawn)
13%

# credit: ChEMBL document CHEMBL3301458
